pest or weed control at 250 g/ha values for the compounds below.
Test system: Alopecurus myosuroides (ALOMY)
Assay: Example A post-emergence herbicidal glasshouse test
Format: in vivo
Details: 312 h, evaluated after 13 days, 100=total damage to plant, 0=no damage
Please format your answer as a value with the unit trailing.

CCc1ccc(-c2ccc(Cl)nc2Cl)cc1C1=C(O)[C@H]2CC[C@H](C2)C1=O (single isomer, unassigned) | 70%
Cc1ccc(-c2ccc(Cl)nc2)cc1C1=C(O)[C@H]2CC[C@H](C2)C1=O (single isomer, unassigned) | 50%
CCc1ccc(-c2ccc(Cl)cc2)cc1C1=C(O)[C@H]2CC[C@H](CC2)C1=O | 100%

In: For the record CCc1ccc(-c2ccc(Cl)c(C#N)c2)cc1C1=C(O)[C@H]2CC[C@H](C2)C1=O (single isomer, unassigned) , what value of pest or weed control at 250 g/ha is listed for Alopecurus myosuroides (ALOMY)?
Out: 70%

In: For Cc1cccc(-c2ccc(C)c(C3=C(O)[C@H]4CC[C@H](C4)C3=O)c2)c1 (single isomer, unassigned) then?
Out: 0%
